Cited source for all entries: the EternaBench riboswitch data

# Tested on: MS2 coat protein
# Experiment: apparent Kd, MS2 coat protein; higher = weaker binding; RNA-MaP array; FMN 200 µM where present
# Experimental parameters: ligand present: flavin mononucleotide; designed as: ON switch for flavin mononucleotide
Would you mind classing the entries by apparent Kd? Ranges: Low (below 0.01 µM), Medium (0.01 µM to below 0.02 µM), High (0.02 µM or more)

[[record]]
sequence = "GGAGCCGGCCUAGGAUAUUUCAUAUUUAAACAUGAGGAUCACCCAUGUAGGCCAGAAGGCCUUGGGAAGAAGGAGGUCGGCUCC"
cat = "Medium"

[[record]]
sequence = "UUUACAUGAGGAUCACCCAUGUCUUGCAAGAUGAGUUCUGGUGAGGAUAUACAUGGUAAAGAACUGUAGAAGGCACUGGGUACA"
cat = "High"

[[record]]
sequence = "GCGAUUUUGUAAGGAUAUACACGAGUUUCAAGUGUAGAAGGUACUUACAUGAGGAUCACCCAUGUAUACUUGGAUAAUAGUCGC"
cat = "High"

[[record]]
sequence = "CCGAUGAUAGGACAGGAUAUGACUGUCGUCACAUGAGGAUCACCCAUGUCCCGGCAAUGCCACCGUUAGAAGGGUCCCAUCUCGG"
cat = "Medium"


-- ask Exam item: assign `UUGAAUCGAAACAUGAGGAUCACCCAUGUGUCGUAGGUAGCAUAGGAUAUGUACAUACUGUUGGGAUAGAAGGAUGAUGAUGCU` to the correct category.
-- reply Low

-- ask Exam item: assign `GGACGACACAUCUACAUGAGGAUCACCCAUGUCAAAAGACAUGAGGAUAUGCUACCUAAUUGGUAGCAGAAGGCAUGGUCGUCC` to the correct category.
-- reply High

-- ask Exam item: assign `GCGUAUAUAUUAUUUAUUUAACUGUCAGAAGGUGAGAAGACGACAUGAGGAUCACCCAUGUUAUUCAAGGAUAUGAUAAUGCGC` to the correct category.
-- reply Low

-- ask Exam item: assign `UCGAAAAUACAAGGAUAUCAAUUGUAGCUAAAUUCAACAUGAGGAUCACCCAUGUAACUAUGGAGUGAGAAGGUGUAGUAAUUU` to the correct category.
-- reply High

-- ask Exam item: assign `AUGGUUCUCGUAGGAUAUGUAGGAUAUGCCUACAUGAGGAUCACCCAUGUUCGCAUGGCAGAAGGACAGAAGGACGAUCACCAA` to the correct category.
-- reply Medium

-- ask Exam item: assign `GCCUAUUCGUGCAGUUAAGGAGCUCAGGAUAUCGCAAUAACAUGAGGAUCACCCAUGUCCGAAUACGAGAAGGGAGGUCCGACG` to the correct category.
-- reply Medium

-- ask Exam item: assign `UUGCCUCAGAACAUGAGGAUCACCCAUGUGCUGCGGGCAACGUAGGAUAUGAUGGUAUUAUACCGUCAGAAGGAUGAUGGUACU` to the correct category.
-- reply Low

-- ask Exam item: assign `UGGUACAUCGGAGGAUAUCGUGUGUAAACAUGAGGAUCACCCAUGUCGUACGAGAGUACGGAGAUCGAGAAGGCCGAUGUACCU` to the correct category.
-- reply Medium

-- ask Exam item: assign `GUGCCUUAUGAGAAGGCGAUCAUGAAACAUGAUCGAGGAUAUCAUGAAAACAUGAGGAUCACCCAUGUAUGGGUAUUAUGGUAC` to the correct category.
-- reply High

-- ask Exam item: assign `GACGUACAUGAGGAUCACCCAUGUACAAACGUACAAGGAUAUGUGUGGAAACCGUACUAUACAGAAGGUGUUUGUC` to the correct category.
-- reply Medium
